test system: Mus musculus; assay: Inhibition of spontaneous motor activity in mice, by administering perorally at a dose of 100 mg/kg; assay type: functional; conditions: route oral
Readings of inhibition in vivo at 100 mg/kg for the listed molecules
Form entry: value (%) — number only.

Qu. inhibition in vivo at 100 mg/kg lookup needed for `Oc1nc(-c2ccc(Cl)cc2)c(CN2CCN(c3ccccc3)CC2)o1` , thanks.
Ans. 15

----------
assay: Lethal dose in mice (LD50) following i.p. dosing; type: toxicity, organism-based; conditions: mouse, in vivo, ip
VALUE_TYPE: LD50 (mg/kg)
Form entry: value (mg/kg) — number only.

The examples below pair each entry with its known result.
| CPD_SMILES | VALUE_TYPE | UNITS_OF_MEASURE | RECORDED_RESULT |
| --- | --- | --- | --- |
| Oc1nc(-c2ccc(F)cc2)c(CCN2CCN(c3ccc(Cl)c(Cl)c3Cl)CC2)o1 | LD50 | mg/kg | 750 |
| Oc1nc(-c2ccc(F)cc2)c(CCN2CCN(c3cc(Cl)ccc3Cl)CC2)o1 | LD50 | mg/kg | 750 |
| COc1ccc(-c2nc(O)oc2CCN2CCN(c3ccccc3)CC2)cc1 | LD50 | mg/kg | 350 |
| COc1ccccc1N1CCN(CCc2oc(=O)n(C(C)=O)c2-c2ccc(F)cc2)CC1 | LD50 | mg/kg | 190 |
| CCN(CC)CCn1c(-c2ccc(F)cc2)c(CCN2CCN(c3ccccc3)CC2)oc1=O | LD50 | mg/kg | 350 |

Qu. LD50 lookup needed for `Cc1ccccc1N1CCN(CCc2oc(O)nc2-c2ccc(F)cc2)CC1` , thanks.
Ans. 250

Qu. Another compound to look at: `Cc1ccc(-c2nc(O)oc2CCN2CCN(c3ccccc3)CC2)cc1`
Ans. 400

----------
assay: Lethal dose in mice (LD50) following i.p. dosing; assay type: toxicity, organism-based; settings: mouse, in vivo, ip
VALUE_TYPE: LD50 (mg/kg)
Form entry: value (mg/kg) — number only.

The examples below pair each entry with its known result.
| CPD_SMILES | UNITS_OF_MEASURE | LD50 |
| --- | --- | --- |
| Oc1nc(-c2ccc(F)cc2)c(CCN2CCN(c3cccc(Cl)c3Cl)CC2)o1 | mg/kg | 90 |
| CC(=O)n1c(-c2ccc(F)cc2)c(CCN2CCN(c3ccccc3)CC2)oc1=O | mg/kg | 350 |
| Oc1nc(-c2ccc(F)cc2)c(CCN2CCN(c3ccc(Cl)c(Cl)c3)CC2)o1 | mg/kg | 1000 |
| COc1cccc(N2CCN(CCc3oc(O)nc3-c3ccc(F)cc3)CC2)c1 | mg/kg | 500 |
| Oc1nc(-c2ccc(F)cc2)c(CCN2CCN(c3cc(Cl)c(Cl)cc3Cl)CC2)o1 | mg/kg | 750 |

Qu. LD50 lookup needed for `Oc1nc(-c2ccc(-c3ccccc3)cc2)c(CCN2CCN(c3ccccc3)CC2)o1` , thanks.
Ans. 750

Qu. Another compound to look at: `O=C(c1ccccc1)n1c(-c2ccc(F)cc2)c(CCN2CCN(c3ccccc3)CC2)oc1=O`
Ans. 750

Qu. Another compound to look at: `CN1CCN(C2=Nc3cc(Cl)ccc3Nc3ccccc32)CC1`
Ans. 100

Qu. Another compound to look at: `CC(=O)n1c(-c2ccc(F)cc2)c(CCN2CCN(c3cc(Cl)cc(Cl)c3)CC2)oc1=O`
Ans. 1000

Qu. Another compound to look at: `COc1ccccc1N1CCN(CCCC(=O)c2ccc(F)cc2)CC1`
Ans. 180

----------
test system: Mus musculus; experiment: Inhibition against apomorphine-induced climbing, after 1 hour of peroral administration in mouse; format: functional; conditions: po
Readings of log10(ED50) for the listed molecules
Log10 applied to ED50; unit prior to transform: mg/kg.

The examples below pair each entry with its known result.
| MOLECULE | VALUE_TYPE | RECORDED_RESULT |
| --- | --- | --- |
| COc1ccccc1N1CCN(CCc2oc(=O)[nH]c2-c2ccc(F)cc2)CC1 [ZOLOPERONE] | log10(ED50) | -0.38 |
| O=C(CCCN1CCC(O)(c2ccc(Cl)cc2)CC1)c1ccc(F)cc1 [HALOPERIDOL] | log10(ED50) | -0.92 |
| O=c1[nH]c(-c2ccc(F)cc2)c(CCN2CCN(c3cc(Cl)cc(Cl)c3)CC2)o1 [LODIPERONE] | log10(ED50) | -0.43 |
| COc1ccccc1N1CCN(CCCC(=O)c2ccc(F)cc2)CC1 [FLUANISONE] | log10(ED50) | 0.70 |

Qu. log10(ED50) lookup needed for CN(C)CCCN1c2ccccc2Sc2ccc(Cl)cc21 [CHLORPROMAZINE] , thanks.
Ans. 0.30

Qu. Another molecule to look at: CN1CCN(C2=Nc3cc(Cl)ccc3Nc3ccccc32)CC1 [CLOZAPINE]
Ans. 1.08

----------
test system: Rattus norvegicus; experiment: Inhibition against conditioned avoidance response, after 5 hour of peroral administration in rats; type: functional; conditions: po
In plain terms, low ED50, meaning strictly below 6 mg/kg, gives t, and everything else gives f.

Take a look at these entries with their results.
| COMPOUND | CLASS_LABEL |
| --- | --- |
| O=C(CCCN1CCC(O)(c2ccc(Cl)cc2)CC1)c1ccc(F)cc1 [HALOPERIDOL] | t |
| CN(C)CCCN1c2ccccc2Sc2ccc(Cl)cc21 [CHLORPROMAZINE] | f |
| COc1ccccc1N1CCN(CCc2oc(=O)[nH]c2-c2ccc(F)cc2)CC1 [ZOLOPERONE] | f |
| COc1ccccc1N1CCN(CCCC(=O)c2ccc(F)cc2)CC1 [FLUANISONE] | f |

Alright, here's another compound for you.
Qu. # TODO verify ED50 < 6 mg/kg strictly for this compound: O=c1[nH]c(-c2ccc(F)cc2)c(CCN2CCN(c3cc(Cl)cc(Cl)c3)CC2)o1 [LODIPERONE]
Ans. f

----------
Readings of LD50 for the listed compounds
test: Lethal dose in mice (LD50) following i.p. dosing; format: toxicity, organism-based; settings: mouse, in vivo, ip
Form entry: value (mg/kg) — number only.

| CPD_SMILES | UNITS_OF_MEASURE | LD50 |
| --- | --- | --- |
| Cn1c(-c2ccc(F)cc2)c(CCN2CCN(c3ccccc3)CC2)oc1=O | mg/kg | 750 |
| Oc1nc(-c2ccc(F)cc2)c(CCN2CCN(c3cc(Br)cc(Br)c3)CC2)o1 | mg/kg | 1000 |
| Oc1nc(-c2ccc(F)cc2)c(CCCN2CCN(c3ccccc3)CC2)o1 | mg/kg | 170 |
| O=c1oc(CCN2CCN(c3ccccc3)CC2)c(-c2ccc(F)cc2)n1Cc1ccccc1 | mg/kg | 1000 |

For the next question, use this compound.
Qu. LD50 lookup needed for `Oc1nc(-c2ccc(F)cc2)c(CCN2CCN(c3ccc(Cl)cc3Cl)CC2)o1` , thanks.
Ans. 1000

----------
system: Mus musculus; assay: Activity of inclined screen in mouse, after 1 hour of peroral administration in mouse; type: functional; settings: po
Readings of ED50 for the listed compounds
Form entry: value (mg/kg) — number only.

The examples below pair each entry with its known result.
| COMPOUND | VALUE_TYPE | UNITS_OF_MEASURE | RECORDED_RESULT |
| --- | --- | --- | --- |
| O=C(CCCN1CCC(O)(c2ccc(Cl)cc2)CC1)c1ccc(F)cc1 [HALOPERIDOL] | ED50 | mg/kg | 6.8 |
| CN(C)CCCN1c2ccccc2Sc2ccc(Cl)cc21 [CHLORPROMAZINE] | ED50 | mg/kg | 5.4 |
| COc1ccccc1N1CCN(CCc2oc(=O)[nH]c2-c2ccc(F)cc2)CC1 [ZOLOPERONE] | ED50 | mg/kg | 91 |

For the next question, use this compound.
Qu. ED50 lookup needed for COc1ccccc1N1CCN(CCCC(=O)c2ccc(F)cc2)CC1 [FLUANISONE] , thanks.
Ans. 49

----------
Readings of ED50 for the listed molecules
tested on: Mus musculus; experiment: Anticonvulsant activity against tryptamine-induced convulsions, after 1 hour of peroral administration in mouse; type: functional; details: po
Form entry: value (mg/kg) — number only.

The examples below pair each entry with its known result.
| CPD_SMILES | UNITS_OF_MEASURE | ED50 |
| --- | --- | --- |
| COc1ccccc1N1CCN(CCCC(=O)c2ccc(F)cc2)CC1 | mg/kg | 12.5 |
| CN(C)CCCN1c2ccccc2Sc2ccc(Cl)cc21 | mg/kg | 3.4 |

Qu. ED50 lookup needed for `COc1ccccc1N1CCN(CCc2oc(=O)[nH]c2-c2ccc(F)cc2)CC1` , thanks.
Ans. 9.8

Qu. Another molecule to look at: `O=C(CCCN1CCC(O)(c2ccc(Cl)cc2)CC1)c1ccc(F)cc1`
Ans. 1.1

Qu. Another molecule to look at: `CN1CCN(C2=Nc3cc(Cl)ccc3Nc3ccccc32)CC1`
Ans. 10.3
